assay: Inhibition of Bacillus cereus 5/B/6 metallo-beta-lactamase […] incubated for 1 min prior to substrate addition by spectrophotometry
readout: Ki (nM)
Response body: numeric value in nM, unit text excluded.

Value of measured Ki for the entry `O=S(=O)(N/N=C/c1c2ccccc2cc2ccccc12)c1ccc2ccccc2c1` : 20

----------
experiment: Inhibition of metallo-beta-lactamase IMP-1 (unknown origin)
readout: INH (µM)
Response body: numeric value in µM, unit text excluded.

[[record]]
compound = "O[C@H](CS)[C@@H](O)CS"
value_observed = 2.2

[[record]]
compound = "OCCS"
value_observed = 12

[[record]]
compound = "O[C@H](CS)[C@H](O)CS"
value_observed = 0.55

[[record]]
compound = "CCOC(=O)CS"
value_observed = 1.4

[[record]]
compound = "O=C(O)CS"
value_observed = 0.23


Value of measured INH for the entry `O=C(O)CCS` : 1.2

Value of measured INH for the entry `CCOC(=O)CCS` : 0.25

Value of measured INH for the entry CC(S)C(=O)O (centres undefined) : 0.19

Value of measured INH for the entry `OCCCS` : 2.5

----------
experiment: Inhibition of metallo-beta-lactamase L1 (unknown origin)
readout: Ki (µM)
Response body: numeric value in µM, unit text excluded.

[[record]]
compound = "CC(NC(=O)COc1ccccc1)C(=O)C(F)(F)F (centres undefined)"
value_observed = 1.5

[[record]]
compound = "O=C(COc1ccccc1)NC(Cc1ccccc1)C(=O)C(F)(F)F (centres undefined)"
value_observed = 1.5

[[record]]
compound = "O=C(COc1ccccc1)NC(Cc1ccccc1)C(O)C(F)(F)F (centres undefined)"
value_observed = 1.5


Lab note: next compound to report on.
Value of measured Ki for the entry CC(NC(=O)COc1ccccc1)C(O)C(F)(F)F (centres undefined) : 1.5

----------
experiment: Inhibition of metallo-beta-lactamase L1 (unknown origin)
readout: IC50 (µM)
Response body: numeric value in µM, unit text excluded.

Value of measured IC50 for the entry O=C(O)c1cccc(C(=O)O)n1 [DIPICOLINIC ACID] : 7.8

----------
assay: Inhibition of metallo-beta-lactamase IMP-1 (unknown origin)
readout: IC50 (µM)
Response body: numeric value in µM, unit text excluded.

Value of measured IC50 for the entry `O=S(=O)(N/N=C/c1c2ccccc2cc2ccccc12)c1ccc2ccccc2c1` : 1.6

----------
test: Inhibition of human arginase
readout: Ki (µM)
Response body: numeric value in µM, unit text excluded.

Value of measured Ki for the entry `N[C@@H](CCCC[N+](=O)[O-])C(=O)O` : 60

----------
Ki values, listed per item
assay: Inhibition of human recombinant purple acid phosphatase at pH 4.9
Square brackets hold non-standard residues; d marks the D form. Peptide text beside a SMILES is read from it. * marks the point of attachment. F2Pmp = N[C@@H](Cc1ccc(C(F)(F)P(=O)(O)O)cc1)C(=O)O; Fmoc = O=C(OCC1c2ccccc2-c2ccccc21)*
Response body: numeric value in µM, unit text excluded.

Solved entries:
[[record]]
compound = "C[C@H](NC(=O)[C@H](Cc1ccc(OC(C(=O)O)C(=O)O)cc1)NC(=O)[C@H](CCC(=O)O)NC(=O)OCC1c2ccccc2-c2ccccc21)C(=O)O"
value_observed = 26

[[record]]
compound = "C[C@H](NC(=O)[C@H](Cc1ccc(C(F)(F)P(=O)(O)O)cc1)NC(=O)[C@H](CCC(=O)O)NC(=O)OCC1c2ccccc2-c2ccccc21)C(=O)O (Fmoc-Glu-[F2Pmp]-Ala-OH)"
value_observed = 63


Value of measured Ki for the entry `C[C@H](NC(=O)[C@H](Cc1ccc(OC(F)(C(=O)O)C(=O)O)cc1)NC(=O)[C@H](CCC(=O)O)NC(=O)OCC1c2ccccc2-c2ccccc21)C(=O)O` : 74

----------
test: Inhibition of arginase (unknown origin); parameters: species or system Homo sapiens
readout: pKi
Interpret pKi as the negative base-10 log of the concentration measured in mol/L.

Value of measured pKi for the entry NNC(N)=S [THIOSEMICARBAZIDE] : 4.00

----------
assay: Inhibition of metallo-beta-lactamase IMP-1 (unknown origin)
readout: Ki (µM)
Response body: numeric value in µM, unit text excluded.

Value of measured Ki for the entry COC1OC(C)=Cc2oc3cc(O)c(O)c(C(=O)O)c3c(=O)c21 (stereo unspecified) : 17

----------
experiment: Inhibition of metallo-beta-lactamase BcII (unknown origin)
readout: pIC50
Interpret pIC50 as the negative base-10 log of the concentration measured in mol/L.

Value of measured pIC50 for the entry O=C(O)c1cccc(C(=O)O)n1 [DIPICOLINIC ACID] : 4.66

----------
Let's go through some recorded pIC50 values for Fe(3+)-Zn(2+) purple acid phosphatase (Phaseolus vulgaris) together.
Interpret pIC50 as the negative base-10 log of the concentration measured in mol/L.

[[record]]
smiles_structure = "O=P(O)(O)CS"
assayed_target = "Fe(3+)-Zn(2+) purple acid phosphatase (Phaseolus vulgaris)"
value_observed = 4.10


So the reported pIC50 for `O=P(O)(O)CCCS` , on Fe(3+)-Zn(2+) purple acid phosphatase (Phaseolus vulgaris), turned out to be 3.80

So the reported pIC50 for `O=P(O)(O)CCS` , on Fe(3+)-Zn(2+) purple acid phosphatase (Phaseolus vulgaris), turned out to be 2.52

So the reported pIC50 for `O=P(O)(O)c1ccccc1S` , on Fe(3+)-Zn(2+) purple acid phosphatase (Phaseolus vulgaris), turned out to be 3.46

----------
experiment: Inhibition of pig purple acid phosphatase at pH 4.9; set-up: species or system Sus scrofa
Square brackets hold non-standard residues; d marks the D form. Peptide text beside a SMILES is read from it. * marks the point of attachment. Phe(4-COOH) = N[C@@H](Cc1ccc(C(=O)O)cc1)C(=O)O; Fmoc = O=C(OCC1c2ccccc2-c2ccccc21)*
pKi values, listed per item
Interpret pKi as the negative base-10 log of the concentration measured in mol/L.

Solved entries:
[[record]]
molecule = "C[C@H](NC(=O)[C@H](Cc1ccc(C(F)(C(=O)O)C(=O)O)cc1)NC(=O)[C@H](CCC(=O)O)NC(=O)OCC1c2ccccc2-c2ccccc21)C(N)=O"
value_observed = 4.31

[[record]]
molecule = "CC(=O)Oc1cc(C[C@H](NC(=O)[C@H](CCC(=O)O)NC(=O)OCC2c3ccccc3-c3ccccc32)C(=O)N[C@@H](C)C(N)=O)ccc1OCC(=O)O"
value_observed = 3.11

[[record]]
molecule = "C[C@H](NC(=O)[C@H](Cc1ccc(C(C(=O)O)C(=O)O)cc1)NC(=O)[C@H](CCC(=O)O)NC(=O)OCC1c2ccccc2-c2ccccc21)C(N)=O"
value_observed = 4.42

[[record]]
molecule = "C[C@H](NC(=O)[C@H](Cc1ccc(CC(=O)O)c(C(=O)O)c1)NC(=O)[C@H](CCC(=O)O)NC(=O)OCC1c2ccccc2-c2ccccc21)C(N)=O"
value_observed = 3.55

[[record]]
molecule = "C[C@H](NC(=O)[C@H](Cc1ccc(OCC(=O)O)c(C(=O)O)c1)NC(=O)[C@H](CCC(=O)O)NC(=O)OCC1c2ccccc2-c2ccccc21)C(N)=O"
value_observed = 3.84


Value of measured pKi for the entry C[C@H](NC(=O)[C@H](Cc1ccc(C(=O)O)cc1)NC(=O)[C@H](CCC(=O)O)NC(=O)OCC1c2ccccc2-c2ccccc21)C(N)=O (Fmoc-Glu-[Phe(4-COOH)]-Ala-NH2) : 3.79

----------
assay: Inhibition of Bacillus cereus metallo-beta-lactamase BcII
readout: IC50 (µM)
Response body: numeric value in µM, unit text excluded.

Value of measured IC50 for the entry `SCc1ccccc1` : 9.2

----------
test: Inhibition of metallo-beta-lactamase CcrA (unknown origin)
readout: Ki (µM)
Response body: numeric value in µM, unit text excluded.

Value of measured Ki for the entry COC1OC(C)=Cc2oc3cc(O)c(O)c(C(=O)O)c3c(=O)c21 (stereo unspecified) : 3.4

----------
assay: Inhibition of metallo-beta-lactamase BcII (unknown origin)
Ki values, listed per item

Solved entries:
[[record]]
compound = "O=C(COc1ccccc1)NC(Cc1ccccc1)C(O)C(F)(F)F (stereo not given)"
value_observed = "1500 nM"

[[record]]
compound = "CC(NC(=O)COc1ccccc1)C(O)C(F)(F)F (stereo not given)"
value_observed = "1500 nM"

[[record]]
compound = "O=C(COc1ccccc1)NC(Cc1ccccc1)C(=O)C(F)(F)F (stereo not given)"
value_observed = "1500 nM"


Value of measured Ki for the entry CC(NC(=O)COc1ccccc1)C(=O)C(F)(F)F (stereo not given) : 1500 nM

Value of measured Ki for the entry COC1OC(C)=Cc2oc3cc(O)c(O)c(C(=O)O)c3c(=O)c21 (stereo not given) : 79000 nM

----------
pKi values, listed per item
assay: Inhibition of Bacillus cereus metallo-beta-lactamase BcII
Interpret pKi as the negative base-10 log of the concentration measured in mol/L.

Solved entries:
[[record]]
compound = "COc1ccc(C(S)C(=O)O)cc1 (centres undefined)"
value_observed = 7.05

[[record]]
compound = "O=C(O)C(S)c1ccccc1 (centres undefined)"
value_observed = 7.05

[[record]]
compound = "O=C(O)c1ccccc1S"
value_observed = 5.04


Value of measured pKi for the entry O=C(O)C(S)c1ccc(F)cc1 (centres undefined) : 7.05
